# MEASUREMENT TARGET: nsp5 (Severe acute respiratory syndrome coronavirus 2, UniProt P0DTD1)
# ASSAY SUMMARY: biochemical
# Assay type: biochemical
# CONDITION DETAILS: FRET-based assay, Reducing agent: DTT; read-out: IC50
Where a SMILES comes first, the peptide text is derived from it. [ ]: non-standard residue; d: D form. Nle = CCCC[C@H](N)C(=O)O
MEASUREMENT LABEL: IC50

{"MOLECULE": "CCCC[C@@H](C=O)NC(=O)[C@H](CC(C)C)NC(=O)[C@H](CC(C)C)NC(C)=O [Calpain Inhibitor I] (Ac-Leu-Leu-[Nle]-aldehyde)", "DATA VALUE": "2800 nM"}
